Biological target: T1, P9-AA
T1 chain: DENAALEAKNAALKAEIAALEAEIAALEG
Test: two-hybrid library CCmax;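 note: natural log of median RNA to DNA barcode read ratio; higher means stronger binding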
Conditions: mean of both orientations
Measure: interaction score
Just the number, please, no unit attached.

DKLAAIKAKLAANKAKKAALKAKAAALKG [AP2-AA] : -1.65
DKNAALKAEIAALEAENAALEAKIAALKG [4H3606-AA] : -0.51
DKNAALKAKIAALKAENAALEAKIAALKG [O6-AA] : -0.00244

Entry DELAAIEAELAAEEAENAALEAEAAALEG [AP1-AA] needs its interaction score filled in; supply it.
-1.77

Entry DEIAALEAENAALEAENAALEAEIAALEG [P1-AA] needs its interaction score filled in; supply it.
-1.49

Entry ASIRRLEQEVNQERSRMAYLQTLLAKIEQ [4H_BCR] needs its interaction score filled in; supply it.
-1.88

Entry DELAAEEAKNAALKAKLAAAKAEIAALEG [AP7-AA] needs its interaction score filled in; supply it.
-2.24

// provenance: paper PMC10397247
